Test method notes: Tanguay_ZF_120hpf_BRAI_legacy: (Legacy) Oregon State University Tanguay Lab 120 Hour Post-fertilization zebrafish Assay for Brain Malformation (AID 2283641)
Inconclusive results are not listed. Active and inactive are the calls of the source. How the source made its calls: active means hit-call score of the fitted dose curve at least 0.9, where 1 is the maximum; inconclusive means response in the unintended direction; inactive means score below 0.9.
Quantity: outcome

Use the examples below as a reference point.
CCCCC(CC)COC(=O)c1ccc(C(=O)OCC(CC)CCCC)c(C(=O)OCC(CC)CCCC)c1 (stereo not drawn) | inactive
CC(C)(OOC(C)(C)c1ccccc1)c1ccccc1 | inactive
COC(=O)c1ccccc1N | inactive
CCN(CC)N=O | inactive
OCCCl | inactive

Noted for `CCOC(=O)[C@]1(c2ccccc2)Oc2ccccc2[C@@H]1N` : its outcome reads inactive

Noted for `N#CC(Br)(Br)C(N)=O` : its outcome reads inactive

Noted for `Brc1ccc(Oc2ccccc2)cc1` : its outcome reads inactive

----------
Read-out: Cyclin Dependent Kinase Inhibitor 1A (CDKN1A), CDKN1A (gene 1026)
Test method notes: LTEA_HepaRG_CDKN1A: Life Technologies and Expression Analysis (LTEA) Assay for Cyclin Dependent Kinase Inhibitor 1A (CDKN1A) using HepaRG (AID 2283450)
Run conditions: mRNA level, 48 h; actives raise or lower the signal
Active and inactive are the calls of the source. Rule for the calls: active = hit-call score of the fitted dose curve at least 0.9, where 1 is the maximum; inactive = score below 0.9.
Quantity: AC50

O=C(O)C1C2CCC(O2)C1C(=O)O (centres undefined) | 35.8 µM (active)
CCNS(=O)(=O)C(F)(F)C(F)(F)C(F)(F)C(F)(F)C(F)(F)C(F)(F)C(F)(F)C(F)(F)F | inactive
c1ccc2c(c1)-c1cccc3cccc-2c13 | inactive
CCOc1cccc(C2(N3CCN(c4ccccc4)CC3)CCC(C)CC2)c1 (centres undefined) | inactive
Nc1ccc(Oc2ccc(N)cc2)cc1 | inactive
OCCCl | inactive
CN(C)c1ccccc1 | inactive
Clc1ccc(Cl)c(Cl)c1 | inactive

Noted for `Nc1cc(Cl)cc(C(=O)O)c1Cl` : its AC50 reads inactive

Noted for `COc1cc(C=O)cc2c1[C@H](COC(N)=O)[C@]1(OC(C)=O)ON2C[C@H]2[C@@H]1N2C(C)=O` : its AC50 reads inactive

Noted for `Nc1ccc(N=Nc2ccccc2)cc1` : its AC50 reads 11.2 µM (active)

Noted for `N#CC(Br)(Br)C(N)=O` : its AC50 reads inactive

Noted for `Clc1ccc(C(c2ccc(Cl)cc2)C(Cl)Cl)cc1` : its AC50 reads inactive

----------
Read-out: CYP3A5 (gene 1577)
Test method notes: LTEA_HepaRG_CYP3A5: Life Technologies and Expression Analysis (LTEA) Assay for CYP3A5 using HepaRG (AID 2283493)
Run conditions: mRNA level, 48 h; actives raise or lower the signal
Description: LTEA_HepaRG is a cell based, multiplexed-readout assay that uses HepaRG, a human liver cell line, with measurements taken at 48 hours after chemical dosing on a 96-well plate.LTEA_HepaRG_CYP3A5 is one of 102 assay component(s) measured in the LTEA HepaRG cell culture assay. It is a marker of NR mediated metabolism.Data from the assay component LTEA_HepaRG_CYP3A5 was analyzed into 1 endpoint. […]
Calls of active or inactive are those of the source. How the source made its calls: active means hit-call score of the fitted dose curve at least 0.9, where 1 is the maximum; inactive means score below 0.9.
// one of active, inactive, no free text

In this assay, the call recorded for `CCOC(=O)[C@]1(c2ccccc2)Oc2ccccc2[C@@H]1N` was what?
inactive

In this assay, the call recorded for `CCCCCOC(=O)c1ccccc1C(=O)OCCCCC` was what?
inactive

In this assay, the call recorded for `Nc1ccc(Cc2ccc(N)cc2)cc1` was what?
inactive

In this assay, the call recorded for O=C(O)C1C2CCC(O2)C1C(=O)O (stereo not given) was what?
inactive

In this assay, the call recorded for `C=CCc1ccc2c(c1)OCO2` was what?
inactive

In this assay, the call recorded for `c1ccc(NNc2ccccc2)cc1` was what?
inactive

In this assay, the call recorded for `Oc1ccc2ccc3cccc4ccc1c2c34` was what?
inactive

In this assay, the call recorded for CCCCC(CC)COC(=O)c1ccc(C(=O)OCC(CC)CCCC)c(C(=O)OCC(CC)CCCC)c1 (stereo not given) was what?
inactive

In this assay, the call recorded for `Cc1ccc([N+](=O)[O-])cc1` was what?
inactive

In this assay, the call recorded for `Cc1ccc(N)c(N)c1` was what?
inactive

In this assay, the call recorded for `OCCOCCO` was what?
inactive

In this assay, the call recorded for `CCC[CH2][Sn]([Cl])([CH2]CCC)[CH2]CCC` was what?
active

In this assay, the call recorded for `COc1cc(C=O)cc2c1[C@H](COC(N)=O)[C@]1(OC(C)=O)ON2C[C@H]2[C@@H]1N2C(C)=O` was what?
inactive

In this assay, the call recorded for `COC(=O)c1ccccc1N` was what?
inactive

In this assay, the call recorded for `Cc1ccc(N=C=O)cc1N=C=O` was what?
inactive

In this assay, the call recorded for `N#CC(Br)Br` was what?
inactive

In this assay, the call recorded for `c1ccc2c(c1)-c1cccc3cccc-2c13` was what?
inactive

In this assay, the call recorded for `[O-][Cl+]O` was what?
inactive

In this assay, the call recorded for `O=C1CCCO1` was what?
active

In this assay, the call recorded for `ClC1=C(Cl)[C@]2(Cl)[C@H]3[C@H]([C@@H]4C=C[C@H]3C4)[C@@]1(Cl)C2(Cl)Cl` was what?
inactive

In this assay, the call recorded for `CCCSC(=O)N(CCC)CCC` was what?
inactive

In this assay, the call recorded for `Nc1cc(Cl)cc(C(=O)O)c1Cl` was what?
inactive

In this assay, the call recorded for C[N+](C)(C)CC1CO1 (stereo not given) was what?
inactive

In this assay, the call recorded for `CC(C)(C)OOC(C)(C)CCC(C)(C)OOC(C)(C)C` was what?
inactive

In this assay, the call recorded for `CN(C)[C@@H]1C(=O)C(C(N)=O)=C(O)[C@@]2(O)C(=O)C3=C(O)c4c(O)cccc4[C@@](C)(O)[C@H]3C[C@@H]12` was what?
inactive
